Target: human CB1 receptor (Homo sapiens)
Construct: expressed in transfected cells; host or cells: HEK293
Assay: bioSensAll β-arrestin2 plasma membrane translocation (+GRK2) BRET biosensor assay in HEK293 cells transfected with hCB1; test compound added before EC75-80 of agonist CP55,940 (100 nM)
Format: cell-based
Settings: βArrestin2 (+GRK2) BRET biosensor, vs CP55,940 100 nM (EC75-80), read-out: CB1 wt βarr2 IC50
Collected IC50 values appear next to each entry.
Answer format: numeric, nM implied, no suffix.

Known results for molecules:
Requested read-out: IC50. Entry: C[C@H](CO)N(C)c1nc(N2CCC(C)(C(N)=O)CC2)c2nc(-c3ccccc3Cl)n(-c3ccc(Cl)cc3)c2n1 [Compound 67]
4.38

Request the reported IC50 associated with C[C@H](CO)Oc1nc(N2CCC(C)(C(N)=O)CC2)c2nc(-c3ccccc3Cl)n(-c3ccc(Cl)cc3)c2n1 [Compound 81]
4.9

Using the record for CN(CCO)c1nc(N2CCC(C)(C(N)=O)CC2)c2nc(-c3cncn3C)n(-c3ccc(Cl)cc3)c2n1 [Compound 58] , report its IC50.
515

Reported IC50 for CCNC1(C(N)=O)CCN(c2nc(NC(C)=O)nc3c2nc(-c2ccccc2Cl)n3-c2ccc(Cl)cc2)CC1 [Compound 145] : what is it?
3

Suppose we examine the molecule CCNC1(C(N)=O)CCN(c2nc(C#N)nc3c2nc(-c2ccccc2Cl)n3-c2ccc(Cl)cc2)CC1 [Compound 146] ; what IC50 value has been reported?
1.62

Query: IC50; subject: CC(C)OC1(C(N)=O)CCN(c2nc(OCC(C)(C)O)nc3c2nc(-c2ccccc2Cl)n3-c2ccc(Cl)cc2)CC1 [Compound 215]
1.64

Further cases:
Would you kindly share the measured IC50 for CC(C)C(=O)Nc1nc(N2CCC(C)(C#N)CC2)c2nc(-c3ccccc3Cl)n(-c3ccc(Cl)cc3)c2n1 [Compound 89] ?
2.31

Quick one: IC50 of CC1(C(N)=O)CCN(c2nc(N3CCC[C@H]3CO)nc3c2nc(-c2ccc(C#N)cc2)n3-c2ccc(Cl)cc2)CC1 [Compound 36] ?
1.52

I would be grateful if you could share the reported IC50 for N#Cc1ccc(-c2nc3c(N4CC(C(N)=O)C4)nc(N4CCC[C@H]4CO)nc3n2-c2ccc(Cl)cc2)cn1 [Compound 140] .
8.69

GET /values?readout=IC50&item= CC1(C(N)=O)CCN(c2nc(OCCCO)nc3c2nc(-c2ccccc2Cl)n3-c2ccc(Cl)cc2)CC1 [Compound 6]
4.78

For the molecule shown here, CC(C)OC1(C(N)=O)CCN(c2nc(N3CCC[C@H]3CO)nc3c2nc(-c2ccc(C#N)nc2)n3-c2ccc(Cl)cc2)CC1 [Compound 136] , give the reported IC50.
1.75

# get_value(readout='IC50', item= CN(CC(C)(C)O)c1nc(N2CCC(C)(C(N)=O)CC2)c2nc(-c3ccccc3Cl)n(-c3ccc(Cl)cc3)c2n1 [Compound 40] )
15.3

Entry CC(C)C(=O)Nc1nc(N2CCC(C)(C(N)=O)CC2)c2nc(-c3ccccc3Cl)n(-c3ccc(Cl)cc3)c2n1 [Compound 1] has what IC50?
15.2

* * *

compounds and their reported IC50
Target: human CB1 receptor (Homo sapiens)
Construct: expressed in transfected cells; host or cells: HEK293
Assay: bioSensAll GAPL-Gi2 BRET biosensor assay in HEK293 cells transfected with hCB1; test compound added before EC75-80 of agonist CP55,940 (0.1 nM)
Type: cell-based
Details: vs CP55,940 0.1 nM (EC75-80), read-out: CB1 wt Gi2 IC50
The response must be a number in nM with no trailing unit.

Please review the following examples before continuing.
Recorded IC50 for CN(CCO)c1nc(N2CCC(C)(C(N)=O)CC2)c2nc(-c3ccncc3)n(-c3ccc(Cl)cc3)c2n1 [Compound 52] , please?
2.06

So what's the measured IC50 for this one? CC(C)(O)COc1nc(N2CCC(C)(C(N)=O)CC2)c2nc(-c3cccnc3)n(-c3ccc(Cl)cc3)c2n1 [Compound 103]
131

Returns the measured IC50 for the input compound. Input: CN(CC1(C)COC1)c1nc(-c2ccc(C(F)(F)F)nc2)c2nc(-c3ccccc3Cl)n(-c3ccc(Cl)cc3)c2n1 [Compound 126]
8.07

New cases:
Looking for the measured IC50 of CN(C)C(=O)c1nc(N2CCC(C)(C(N)=O)CC2)c2nc(-c3ccccc3Cl)n(-c3ccc(Cl)cc3)c2n1 [Compound 2] , can you help?
10.5

Given the compound CN(CCO)c1nc(NC2CN(C(N)=O)C2)c2nc(-c3ccccc3Cl)n(-c3ccc(Cl)cc3)c2n1 [Compound 176] , what is its reported IC50?
15.6

So what's the measured IC50 for this one? CN(CCO)c1nc(N2CCC3(CCOC3)CC2)c2nc(-c3ccccc3Cl)n(-c3ccc(Cl)cc3)c2n1 [Compound 191]
0.418

Name the recorded IC50 for CN1CCC[C@H]1COc1nc(N2CCC(C)(C(N)=O)CC2)c2nc(-c3ccccc3Cl)n(-c3ccc(Cl)cc3)c2n1 [Compound 117] .
1.64

* * *

Target: human CB1 receptor (Homo sapiens, UniProt P21554)
Construct: expressed in transfected cells; host or cells: HEK293
Sequence (P21554 whole entry): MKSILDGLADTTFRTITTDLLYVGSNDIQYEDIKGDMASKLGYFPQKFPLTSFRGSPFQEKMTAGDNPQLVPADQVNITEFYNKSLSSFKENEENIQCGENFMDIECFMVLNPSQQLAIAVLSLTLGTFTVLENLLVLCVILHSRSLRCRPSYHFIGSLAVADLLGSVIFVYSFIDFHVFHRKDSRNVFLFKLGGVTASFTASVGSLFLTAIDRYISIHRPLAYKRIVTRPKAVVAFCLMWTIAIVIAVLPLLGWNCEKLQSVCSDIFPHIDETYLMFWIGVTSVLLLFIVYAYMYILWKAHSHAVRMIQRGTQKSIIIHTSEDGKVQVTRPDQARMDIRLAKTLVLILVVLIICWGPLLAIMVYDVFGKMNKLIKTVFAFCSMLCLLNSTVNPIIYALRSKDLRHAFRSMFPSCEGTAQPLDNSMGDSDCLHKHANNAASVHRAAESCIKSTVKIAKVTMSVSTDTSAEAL
Experiment: bioSensAll β-arrestin2 plasma membrane translocation (+GRK2) BRET biosensor assay in HEK293 cells transfected with hCB1; test compound added before EC75-80 of agonist CP55,940 (100 nM)
Type: cell-based
Settings: βArrestin2 (+GRK2) BRET biosensor, vs CP55,940 100 nM (EC75-80), read-out: CB1 wt βarr2 IC50
Entries and their IC50
Number only, in nM; omit the unit.

Sample C[C@H]1CN(c2nc(OCC(C)(C)O)nc3c2nc(-c2ccccc2Cl)n3-c2ccc(Cl)cc2)CCO1 [Compound 210] — what was its IC50?
18.7

For the compound shown here, CC1(C(N)=O)CCN(c2nc(N3C[C@H]4CCC[C@H]4C3)nc3c2nc(-c2ccccc2Cl)n3-c2ccc(Cl)cc2)CC1 [Compound 14] , give the reported IC50.
34.5

Reported IC50 for COC1(C)CN(c2nc(OCC(C)(C)O)nc3c2nc(-c2ccc(C#N)nc2)n3-c2ccc(Cl)cc2)C1 [Compound 114] : what is it?
14.1

Now look at this entry.
Please look up its IC50: FC(F)(F)C1CCN(c2nc(OC3CCCOC3)nc3c2nc(-c2ccccc2Cl)n3-c2ccc(Cl)cc2)CC1 (stereo not shown) [Compound 33]
4.98

* * *

# key: entry, value: IC50
Target: human CB1 receptor (Homo sapiens, UniProt P21554)
Construct: expressed in transfected cells; host or cells: HEK293
Assay: bioSensAll β-arrestin2 plasma membrane translocation (+GRK2) BRET biosensor assay in HEK293 cells transfected with hCB1; test compound added before EC75-80 of agonist CP55,940 (100 nM)
Format: cell-based
Conditions: βArrestin2 (+GRK2) BRET biosensor, vs CP55,940 100 nM (EC75-80), read-out: CB1 wt βarr2 IC50

Use the examples below as a reference point.
Name the reported IC50 value associated with the compound CC(C)(O)COc1nc(NCCO)c2nc(-c3ccccc3Cl)n(-c3ccc(Cl)cc3)c2n1 [Compound 98]
> 5000 nM

Recorded IC50 of CC(C)(O)COc1nc(N2CCC(C)(C(N)=O)CC2)c2nc(-c3ccccc3Cl)n(-c3ccc(Cl)cc3)c2n1 [Compound 9] , please.
2.92 nM

Which IC50 is reported for this compound? C[C@H](O)COc1nc(N2CCC(C)(C(N)=O)CC2)c2nc(-c3ccccc3Cl)n(-c3ccc(Cl)cc3)c2n1 [Compound 80]
5.09 nM

Lab note: next compound to report on.
Can you look up the measured IC50 of CCOC1(C(N)=O)CCN(c2nc(NCC(C)(C)O)nc3c2nc(-c2ccc(C#N)nc2)n3-c2ccc(Cl)cc2)CC1 [Compound 132] for me?
> 5000 nM

* * *

Target: human CB1 receptor (Homo sapiens, UniProt P21554)
Construct: expressed in transfected cells; host or cells: HEK293
Experiment: bioSensAll β-arrestin2 plasma membrane translocation (+GRK2) BRET biosensor assay in HEK293 cells transfected with hCB1; test compound added before EC75-80 of agonist CP55,940 (100 nM)
Assay type: cell-based
Conditions: βArrestin2 (+GRK2) BRET biosensor, vs CP55,940 100 nM (EC75-80), read-out: CB1 wt βarr2 IC50
Protocol: Using polyethylenimine (PEI) transfection agent, HEK293 cells were transfected in suspension with the human CB1 receptor and one of the following bioSensAll® assays: GAPL-Gi2, or β-arrestin plasma membrane (PM) translocation biosensor (+GRK2). Cells were directly seeded in 96-well plates immediately following transfection. Cells were incubated with coelenterazine (luciferase substrate) and different test compounds prior to the measurement of BRET signals. […]
MEASURED METRIC: IC50 (nM)
Report as a plain number; the unit nM is understood.

GET /values?readout=IC50&item= CC1(C(N)=O)CCN(c2nc(N(CCO)Cc3ccccc3)nc3c2nc(-c2ccccc2Cl)n3-c2ccc(Cl)cc2)CC1
3.09

What does the record list as IC50 for CC(C)Oc1nc(OC[C@H](C)O)nc2c1nc(-c1ccccc1Cl)n2-c1ccc(Cl)cc1 ?
16

Item CN(CCO)c1nc(N2CCC(C)(C(N)=O)CC2)c2nc(-c3ccncc3)n(-c3ccc(Cl)cc3)c2n1 has what recorded IC50?
29.1
